From: paper PMC10349806

# study system: PfCRT^Dd2 (Plasmodium falciparum, UniProt Q9N623, A220S/I356T/K76T/M74I/N326S/N75E/Q271E/R371I)
# Sequence (Q9N623 whole entry A220S/I356T/K76T/M74I/N326S/N75E/Q271E/R371I): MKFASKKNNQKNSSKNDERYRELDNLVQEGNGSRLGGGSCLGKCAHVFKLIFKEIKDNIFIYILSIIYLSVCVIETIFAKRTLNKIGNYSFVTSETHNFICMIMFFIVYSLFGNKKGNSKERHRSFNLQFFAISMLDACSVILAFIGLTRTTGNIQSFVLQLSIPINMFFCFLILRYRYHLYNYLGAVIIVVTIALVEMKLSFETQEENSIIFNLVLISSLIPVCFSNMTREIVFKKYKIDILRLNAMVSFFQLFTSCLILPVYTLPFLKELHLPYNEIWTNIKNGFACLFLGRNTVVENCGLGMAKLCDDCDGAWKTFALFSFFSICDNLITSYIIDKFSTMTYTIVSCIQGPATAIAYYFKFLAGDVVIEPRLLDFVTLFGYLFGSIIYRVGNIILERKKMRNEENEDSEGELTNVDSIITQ
# experiment description: Drug uptake assay, X. laevis oocytes expressing PfCRT^Dd2
# Type: cell-based
# conditions: KS^CQ, mixed (partial) model; mean ± SEM
measured parameter: pKd
Here pKd is given on a logarithmic scale as minus log10 of the concentration in mol/L.

*Q* Which pKd is reported for this molecule? CCN(CC)CCCC(C)Nc1ccnc2cc(Cl)ccc12 (stereo not shown)
*A* 3.49

====

# study system: PfCRT^Dd2 (Plasmodium falciparum, UniProt Q9N623, A220S/I356T/K76T/M74I/N326S/N75E/Q271E/R371I)
# experiment description: Drug uptake assay, X. laevis oocytes expressing PfCRT^Dd2
# Format: cell-based
# conditions: KS^CQ, noncompetitive (partial) model; called KM; mean ± SEM
measured parameter: Kd (µM)
Field format: number, assumed µM, no unit text.

*Q* Which Kd is reported for this molecule? CCN(CC)CCCC(C)Nc1ccnc2cc(Cl)ccc12 (stereo not shown)
*A* 220
